In this section, each of the molecules is paired with its reported hepatocyte CLint at 1 µM.
method.description: Hepatocyte intrinsic clearance and metabolite profile
Type: in vitro ADME, mouse
experimental.setup: male, CD-1, mouse, cryopreserved hepatocytes; 1 µM; read-out: CLint in vitro
value.type: hepatocyte CLint at 1 µM

>>> obs_value("CCOc1ccc2ccc(=O)oc2c1 [7-ethoxycoumarin, reference compound]")
"901 µL/min/1e6 cells"
>>> obs_value("CSc1ccc(OCc2ncc([N+](=O)[O-])n2C)cc1 [Fexinidazole]")
"1630 µL/min/1e6 cells"

###

In this section, each of the molecules is paired with its reported Cmax.
method.description: Rat 28-day toxicokinetics
Format: in vivo
experimental.setup: male, Sprague Dawley (Crl:CD (SD)IGS BR), plasma, po, 200 mg/kg/day, Day 28, male
value.type: Cmax

>>> obs_value("CSc1ccc(OCc2ncc([N+](=O)[O-])n2C)cc1 [Fexinidazole]")
"255 ng/mL"
>>> obs_value("Cn1c([N+](=O)[O-])cnc1COc1ccc([S+](C)[O-])cc1 (stereo not drawn) [Fexinidazole sulfoxide]")
"11600 ng/mL"
>>> obs_value("Cn1c([N+](=O)[O-])cnc1COc1ccc(S(C)(=O)=O)cc1 [Fexinidazole sulfone]")
"24200 ng/mL"

###

In this section, each of the compounds is paired with its reported Cmax.
method.description: Mouse pharmacokinetics after 5-day oral dosing
experimental.setup: male, NMRI, mouse, plasma, po, 200 mg/kg/day
value.type: Cmax (ng/mL)

>>> obs_value("Cn1c([N+](=O)[O-])cnc1COc1ccc([S+](C)[O-])cc1 (stereo not drawn) [Fexinidazole sulfoxide]")
33600
>>> obs_value("CSc1ccc(OCc2ncc([N+](=O)[O-])n2C)cc1 [Fexinidazole]")
457
>>> obs_value("Cn1c([N+](=O)[O-])cnc1COc1ccc(S(C)(=O)=O)cc1 [Fexinidazole sulfone]")
77600

###

method.description: Mouse single-dose plasma pharmacokinetics
Type: in vivo
experimental.setup: female, NMRI, mouse; plasma, fexinidazole 1 mg/kg iv
Procedure: Blood samples were taken via into heparinised collection tubes and, following centrifugation, plasma was removed and stored frozen until required for assay. […] All doses are expressed as free base […] All of the plasma samples together with the brains from the 15 minute time point were analysed for concentrations of the test material and its sulfone and sulfoxide metabolites. […] The AUC was determined using the linear/log trapezoidal method. […] The AUClast was also determined. […]
In this section, each of the molecules is paired with its reported half-life.
value.type: half-life (min)

>>> obs_value("Cn1c([N+](=O)[O-])cnc1COc1ccc([S+](C)[O-])cc1 (centres unmarked) [Fexinidazole sulfoxide]")
36
>>> obs_value("CSc1ccc(OCc2ncc([N+](=O)[O-])n2C)cc1")
6

###

method.description: Rat 28-day toxicokinetics
Type: in vivo
experimental.setup: Sprague-Dawley (Crl:CD (SD)IGS BR), plasma, po, 50 mg/kg/day, 50 mg/kg/day po, day 14
Protocol: In the rat repeated-dose toxicokinetic study, fexinidazole was administered orally by gavage once a day for 28 consecutive days to ten or fifteen Crl:CD (SD)IGS BR rats/sex/group at doses of 50, 200, or 800 mg/kg/day. […] Systemic exposure to fexinidazole and its sulfoxide and sulfone metabolites was evaluated in three additional animals/sex/group. […] ULOQ Upper limit of quantification […] 24 hours post dosing was calculated and denoted AUC0-24. […]
value.type: Cmax (ng/mL)

>>> obs_value("CSc1ccc(OCc2ncc([N+](=O)[O-])n2C)cc1 [Fexinidazole]")
180
>>> obs_value("Cn1c([N+](=O)[O-])cnc1COc1ccc([S+](C)[O-])cc1 (stereo not drawn) [Fexinidazole sulfoxide]")
5230
>>> obs_value("Cn1c([N+](=O)[O-])cnc1COc1ccc(S(C)(=O)=O)cc1 [Fexinidazole sulfone]")
6380
